- EXPERIMENTAL SYSTEM: T1, ROR1 naturally expressed on human tumor cell lines (A549, Jeko-1, SW620, PA-1) (human, UniProt Q01973 30-937)
- T1 construct: whole, on cells; also called cells expressing ROR1
- T1 sequence (Q01973 30-937): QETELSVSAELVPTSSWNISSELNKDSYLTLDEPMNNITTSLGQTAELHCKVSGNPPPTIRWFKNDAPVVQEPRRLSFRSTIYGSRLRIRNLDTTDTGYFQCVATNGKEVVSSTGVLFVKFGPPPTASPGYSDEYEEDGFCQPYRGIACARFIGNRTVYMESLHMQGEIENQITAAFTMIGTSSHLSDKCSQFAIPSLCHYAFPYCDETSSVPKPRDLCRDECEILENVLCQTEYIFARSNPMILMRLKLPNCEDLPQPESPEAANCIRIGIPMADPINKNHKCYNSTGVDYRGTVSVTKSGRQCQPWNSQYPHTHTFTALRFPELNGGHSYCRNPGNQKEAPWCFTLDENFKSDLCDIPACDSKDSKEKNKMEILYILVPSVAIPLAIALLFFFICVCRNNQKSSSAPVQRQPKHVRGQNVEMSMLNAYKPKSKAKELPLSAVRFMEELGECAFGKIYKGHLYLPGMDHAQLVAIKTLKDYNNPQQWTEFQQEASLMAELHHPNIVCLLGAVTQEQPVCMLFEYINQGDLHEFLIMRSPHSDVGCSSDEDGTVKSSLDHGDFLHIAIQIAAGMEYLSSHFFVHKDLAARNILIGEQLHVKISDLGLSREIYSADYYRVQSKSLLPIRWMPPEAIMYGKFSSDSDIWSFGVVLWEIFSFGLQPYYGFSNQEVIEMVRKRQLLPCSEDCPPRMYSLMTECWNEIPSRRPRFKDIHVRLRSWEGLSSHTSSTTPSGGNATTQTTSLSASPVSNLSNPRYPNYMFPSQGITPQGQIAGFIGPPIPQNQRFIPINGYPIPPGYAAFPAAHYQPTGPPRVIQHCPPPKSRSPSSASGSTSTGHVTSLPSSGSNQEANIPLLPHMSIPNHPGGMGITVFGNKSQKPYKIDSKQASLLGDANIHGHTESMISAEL
- TEST NAME: FACS on Jeko-1 cells naturally expressing ROR1
// EC50 lookup, one value per entry
RESULT TYPE: EC50

INSERT INTO measurements (binder, result_type, assay_value) VALUES
  ('ch137G11D10 (antibody, human IgG1, kappa, V domains shown, also called chimeric antibody of m137G11D10) VH: DVQLQESGPGLVKPSQSLSLTCTVTGYSITSDYAWNWIRQFPGNKLEWMGYITYSASTSYNPSLKSRISITRDTSKNQFFLQLNSVTTEDTATYYCARGAGTYYFDYWGQGSTLTVSS VL: DIVLTQSPASLSVATGEKVTIRCITSTDIDEDMNWYQQKPGEPPKLLISEDNSLRPGVPSRFSSSGYGTDFVLTIENTLSEDVADYYCLQTNNLPLTFGAGTKLEIKR', 'EC50', '0.012 nM'),
  ('ch29H5D8 (antibody, human IgG1, kappa, V domains shown, also called chimeric antibody of m29H5D8) VH: EVQLQQSGAELARPGASVKLSCKASGYTFTNYGISWVKQRTGQGLEWIGEIYPRSVNTYYSAKFKGKATLTADKSSSTAYMELRSLTSEDSAVYFCARHYYGSSLDYWGQGTTLTVSS VL: DIVLTQSPASLSVATGEKVTIRCITSSDIEDDMNWYQQKPGEPPKLLISEGNSLRPGVPSRFSSSGYGTDFVFTIENTLSEDVADYYCLQSDNIFTFGSGTKLEIKR', 'EC50', '0.011 nM'),
  ('ch135A2B10 (antibody, human IgG1, kappa, V domains shown, also called chimeric antibody of m135A2B10) VH: DVKLVESGGGLVTPEGSLKLSCAASGFAFSTYGMAWVRQTPEKRLEWVASIHKGGFSTYYPDNVKGRFTISRDNDKNTLYLQMSSLKSEDTAMYYCIRHDWDGAMDYWGQGTSVTVSS VL: DIVLTQSPSSMYASLGERVTITCKASQDINSYLNWFQQKPGKSPKTLIYRANRLVDGVPSRFSGSGSGQDYSLTISSLEYEDLGIYYCLQFDEFPYTFGGGTKLEIKR', 'EC50', '0.037 nM'),
  ('UC-961 (antibody, V domains shown) VH: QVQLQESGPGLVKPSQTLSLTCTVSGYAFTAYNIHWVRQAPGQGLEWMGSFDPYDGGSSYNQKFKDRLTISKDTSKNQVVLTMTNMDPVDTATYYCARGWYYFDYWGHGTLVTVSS VL: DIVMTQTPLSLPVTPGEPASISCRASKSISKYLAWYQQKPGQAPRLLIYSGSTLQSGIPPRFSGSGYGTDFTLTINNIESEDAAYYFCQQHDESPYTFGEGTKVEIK', 'EC50', '0.019 nM');
